# Tested on: SF-295 CNS
# EXPERIMENTAL_DETAILS: NCI tumour cell line growth inhibition, 48 h; in the data active = GI50 below about 0.43 µM; inactive = the rest
// classify into Yes (active), No (inactive)

Check the results log: what was the call for CC(C)=[CH][Sb]([Br])([CH]=C(C)C)([CH]=C(C)C)[c]1ccccc1 ?
No

====

# Test system: SF-295 CNS
# EXPERIMENTAL_DETAILS: NCI tumour cell line growth inhibition, 48 h
PROPERTY_LABEL: GI50

What value of measured GI50 is listed for COc1cc2c3c(n(CCCNCCNCCN)c(=O)c2cc1OC)-c1cc2c(cc1C3=O)OCO2 ?
522 nM

Also c1ccc([P+](c2ccccc2)(c2ccccc2)c2ccc3c4ccc([P+](c5ccccc5)(c5ccccc5)c5ccccc5)c5cccc(c6cccc2c63)c54)cc1 , if possible.
1240 nM

Next compound up: [N-]=[N+]=NCCCn1c2c(c3cc4c(cc3c1=O)OCO4)C(=O)c1ccccc1-2
32400 nM

What do we get for Cn1ccc(=O)c2c(O)c3ccccc3c(O)c21 ?
64300 nM

Moving on to the next compound: COc1ccc(-c2cc(-c3ccccc3)nc(SCCCC(=O)NO)n2)cc1OC
887 nM

Please do the same for CNC(=O)NCC1OC(n2cnc3c(NC(=O)Nc4ccccc4)ncnc32)C(O[Si](C)(C)C(C)(C)C)C1CC(=O)N(C)OC (configuration not stated) as well.
9090 nM

Okay, next one:
What value of GI50 has been reported for the following compound? O=C1Nc2ccccc2/C1=C\c1c(Cl)nc2sccn12
1110 nM

====

Measured TGI by item
# System: HOP-62 NSCLC
# EXPERIMENTAL_DETAILS: NCI tumour cell line growth inhibition, 48 h
Form entry: value (µM) — number only.

A selection of reference data follows.
Please give the measured TGI for this compound: CCO/C=N/C1=C(C#N)C(c2ccc(OC)cc2)c2sc3c(F)cccc3c2O1 (stereo not given)
47.5

Same read-out for COc1cc(/C=N/n2c(-c3ccccc3)n[nH]c2=O)cc(OC)c1OC ?
33.1

What about O=C1C=CC(=O)c2cc3cc(CO)ccc3cc21 ?
31.1

Further, for CNCC(=O)Nc1ccc2c(c1)C(=O)c1ccc(NC(=O)CNC)cc1C2=O ?
9.98

Then what about the compound [N-]=[N+]=Nc1c(Cc2ccccc2)c(=O)oc2ccccc12 ?
50.3

Please turn your attention to the following entry.
What value of measured TGI is listed for CC(=O)Nc1ccc(S(=O)(=O)Nc2nc(-c3ccc(Cl)cc3)cc(N3N=C(c4ccc(Br)cc4)CC3c3ccccc3)n2)cc1 (stereo not given) ?
35.3

====

# System: A498 renal
# EXPERIMENTAL_DETAILS: NCI tumour cell line growth inhibition, 48 h
Residues, ends and D or L forms follow the SMILES beside them. *: point of attachment. Boc = CC(C)(C)OC(=O)*; OBn = c1ccc(CO*)cc1
The molecules listed here are annotated with their TGI.

Please review the following examples before continuing.
Given the molecule Cc1cc2c(O)c(c1)COCc1cc(C)cc(c1O)COCc1cc(C)cc(c1O)COC2 , what is its reported TGI?
> 100 µM

Another molecule to check: O=[N+]([O-])c1cc(Cl)c(Cl)cc1[N+](=O)[O-]
33 µM

Quick one: CCN(CC)CCNc1ccc2nnn3c4ccc([N+](=O)[O-])cc4c(=O)c1c23
23.8 µM

Next:
Which TGI is reported for this molecule? CNC(=O)NCC1OC(n2cnc3c(NC(=O)Nc4ccccc4)ncnc32)C(O[Si](C)(C)C(C)(C)C)C1CC(=O)N(C)OC (centres undefined)
> 63.5 µM

Next entry: CC(C)CC(NC(=O)OC(C)(C)C)C(=O)NC(CC(=O)OCc1ccccc1)C(N)=O (stereo not drawn) (Boc-Leu-Asp(OBn)-NH2; configuration not given here)
> 100 µM

And what about the molecule O=C1Nc2cc(Cl)ccc2C(=O)N2CCC[C@@H]12 ?
> 100 µM

And CC(C)OC(=O)[C@@H]1OC(C)(C)O[C@H]1C(=O)OC(C)C ?
> 100 µM

Input COc1ccc(-c2cc(-c3ccccc3)nc(SCCCC(=O)NO)n2)cc1OC
1.72 µM

// next record C=CCN1CCN([C@H](c2ccc(C(=O)N(CC)CC)cc2)c2cccc(OC)c2)CC1
> 25 µM
